Each recorded value in this set is attributed to patent US20190225691A1.

biological target: T1, human PD-L1 ECD-His (human, UniProt Q9NZQ7 19-238); experiment: SPR, 25 C, antibody captured by anti-human IgG Fc, hPD-L1_ECD-His analyte, 1:1 fit
T1 construct: extracellular domain; Analyte in all SPR and BLI runs; also called hPD-L1_ECD-His; hPD-L1 ECD-His; not shown: His tag
T1 sequence (Q9NZQ7 19-238): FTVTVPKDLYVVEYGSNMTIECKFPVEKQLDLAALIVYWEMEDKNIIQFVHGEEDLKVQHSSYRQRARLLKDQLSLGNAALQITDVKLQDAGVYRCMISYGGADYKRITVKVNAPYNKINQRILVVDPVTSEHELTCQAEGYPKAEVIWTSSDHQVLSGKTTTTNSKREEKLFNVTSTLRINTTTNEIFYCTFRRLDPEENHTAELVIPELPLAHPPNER
reported-endpoint: koff (s⁻¹)
Kindly provide the numeric value in s⁻¹ only, without the unit symbol.

Consider the following illustrative entries.
binder	koff, s⁻¹
PL3 (full-length, N297A mutant human IgG1) (antibody, V domains shown) VH: QVQLVQSGAEVKKPGSSVKVSCKASGGTFSSYTISWVRQAPGQGLEWMGRIIPILGIANYAQKFQGRVTITADKSTSTAYMELSSLRSEDTAVYYCARSRDGYSFGAFDIWGQGTLVTVSS VL: QSVVTQPPPVSGAPGQRVTISCTGSSSNIGAGYDVHWYQQLPGTAPKLLIYGNSNRPSGVPDRFSGSKSGTSASLAITGLQAEDEADYYCQSYDSSLSAPVVFGGGTKLTVLG	0.0041
PL12 (full-length, N297A mutant human IgG1) (antibody, V domains shown) VH: QVQLVQSGAEVKKPGSSVKVSCKASGGTFSSYAISWVRQAPGQGLEWMGRIIPILGIANYAQKFQGRVTITADKSTSTAYMELSSLRSEDTAVYYCARGIGSYSFGAFDIWGQGTMVTVSS VL: QSVLTQPPSVSGAPGQRVTISCTRSSSNIGAGHDVHWYQQLPGTAPKLLIYGNSNRPSGVPDRFSGSKSGTSASLAITGLQAEDGADYYCQSYDSSLTGVVFGGGTKLTVLG	0.00267
PL6 (full-length, N297A mutant human IgG1) (antibody, V domains shown) VH: EVQLVQSGAEVKKPGSSVKVSCKASGGTFSSYTINWVRQAPGQGLEWVGKIIPILGIADYAQMFKGRVTITADKFTSTVYMELNSLRSEDTAVYYCARGGYVGYLNAFDIWGQGTMVTVSS VL: QSVVTQPPSVSGAPGQRVTISCTGSSSNIGAGYDVHWYQQLPGTAPKLLIYGNSNRPSGVPDRFSGSKSGTSASLAITGLQAEDEADYYCQSYDSSLSGGVFGGGTKLTVLG	0.0122

Consider the record given below.
## Task Query: koff; subject: PL15 (full-length, N297A mutant human IgG1) (antibody, V domains shown) VH: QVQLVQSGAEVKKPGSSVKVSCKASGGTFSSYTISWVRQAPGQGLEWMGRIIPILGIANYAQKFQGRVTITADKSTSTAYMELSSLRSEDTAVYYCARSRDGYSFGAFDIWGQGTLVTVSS VL: QSVLTQPPSVSGAPGQRVTISCTGYSSNIGAGYDVHWYQHLPGTAPKLLIYGNSNRPSGVPDRFSGSKSGTSASLAITGLQAEDEADYYCQSYDNSLSVSVFGGGTKLTVLG
## Result 0.00933
